# Tested on: Streptococcus sp.
# procedure_text: In vitro antibacterial evaluation: minimum inhibitory concentration (MIC), broth dilution method
# Assay type: cell-based
# measurement_context: broth dilution, 5×10^5 CFU/mL, 18 hours at 35° C.
observable: MIC Streptococcus pneumoniae (GC 4565)

{"molecule": "CC(c1ccccc1)C1NC(=O)CNC(=O)C(CO)NC(=O)C(C(O)C2CNC(=N)N2C2OC(CO)C(O)C(O)C2O)NC(=O)C(C(O)C2CNC(=N)N2)NC(=O)C(Cc2ccc(OC3OC(CO)C(OC4OC5COC(Cc6ccc(Cl)cc6)OC5C(O)C4O)C(O)C3O)cc2)NC1=O (stereo not shown)", "result": "<0.5 µg/mL"}
{"molecule": "CC(C)CC1OCC2OC(OC3C(CO)OC(Oc4ccc(CC5NC(=O)C(C(C)c6ccccc6)NC(=O)CNC(=O)C(CO)NC(=O)C(C(O)C6CNC(=N)N6C6OC(CO)C(O)C(O)C6O)NC(=O)C(C(O)C6CNC(=N)N6)NC5=O)cc4)C(O)C3O)C(O)C(O)C2O1 (stereo not shown)", "result": "<0.12 µg/mL"}
{"molecule": "CC(c1ccccc1)C1NC(=O)CNC(=O)C(CO)NC(=O)C(C(O)C2CNC(=N)N2C2OC(CO)C(O)C(O)C2O)NC(=O)C(C(O)C2CNC(=N)N2)NC(=O)C(Cc2ccc(OC3OC(CO)C(OC4OC5COC(CC67CC8CC(CC(C8)C6)C7)OC5C(O)C4O)C(O)C3O)cc2)NC1=O (stereo not shown)", "result": "<0.06 µg/mL"}
{"molecule": "N=C1NCC(C(O)C2NC(=O)C(Cc3ccc(OC4OC(CO)C(OC5OC(CO)C(O)C6OC7(OC56)C5CC6CC(C5)CC7C6)C(O)C4O)cc3)NC(=O)C(CC3CCCCC3)NC(=O)CNC(=O)C(CO)NC(=O)C(C(O)C3CNC(=N)N3C3OC(CO)C(O)C(O)C3O)NC2=O)N1 (stereo not shown) [Example 106a]", "result": "<0.06 µg/mL"}
{"molecule": "CC(c1ccccc1)C1NC(=O)CNC(=O)C(CO)NC(=O)C(C(O)C2CNC(=N)N2C2OC(CO)C(O)C(O)C2O)NC(=O)C(C(O)C2CNC(=N)N2)NC(=O)C(Cc2ccc(OC3OC(CO)C(OC4OC5COC(Cc6ccc(F)cc6)OC5C(O)C4O)C(O)C3O)cc2)NC1=O (stereo not shown)", "result": "<0.06 µg/mL"}
{"molecule": "CC(C)=CCCC(C)CC1OCC2OC(OC3C(CO)OC(Oc4ccc(CC5NC(=O)C(C(C)c6ccccc6)NC(=O)CNC(=O)C(CO)NC(=O)C(C(O)C6CNC(=N)N6C6OC(CO)C(O)C(O)C6O)NC(=O)C(C(O)C6CNC(=N)N6)NC5=O)cc4)C(O)C3O)C(O)C(O)C2O1 (stereo not shown)", "result": "<0.06 µg/mL"}
{"molecule": "CC(c1ccccc1)C1NC(=O)CNC(=O)C(CO)NC(=O)C(C(O)C2CNC(=N)N2C2OC(CO)C(O)C(O)C2O)NC(=O)C(C(O)C2CNC(=N)N2)NC(=O)C(Cc2ccc(OC3OC(CO)C(OC4OC5COC(C67CC8CC(CC(C8)C6)C7)OC5C(O)C4O)C(O)C3O)cc2)NC1=O (stereo not shown)", "result": "<0.12 µg/mL"}
